# tested system: HIV-1 Env of isolate MGRM-D-003 (subtype D) (HIV-1)
# assay notes: cell-based or functional assay
measured metric: IC50 (neutralization) (µg/mL)
Express your answer in µg/mL, writing the number without its unit.

PGT-127 (antibody, V domains shown) VH: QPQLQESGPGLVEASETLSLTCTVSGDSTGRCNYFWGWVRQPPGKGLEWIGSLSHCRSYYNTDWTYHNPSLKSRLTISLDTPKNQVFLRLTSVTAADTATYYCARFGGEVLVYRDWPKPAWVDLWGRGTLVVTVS VL: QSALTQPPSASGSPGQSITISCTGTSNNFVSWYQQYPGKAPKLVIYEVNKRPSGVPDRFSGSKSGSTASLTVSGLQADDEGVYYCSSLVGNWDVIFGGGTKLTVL : 0.029

Record request: IC50 (neutralization) value, item PGT-130 (antibody, V domains shown) VH: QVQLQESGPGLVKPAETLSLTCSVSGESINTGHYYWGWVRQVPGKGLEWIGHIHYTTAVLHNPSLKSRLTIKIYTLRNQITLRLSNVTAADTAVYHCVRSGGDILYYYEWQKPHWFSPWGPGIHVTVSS VL: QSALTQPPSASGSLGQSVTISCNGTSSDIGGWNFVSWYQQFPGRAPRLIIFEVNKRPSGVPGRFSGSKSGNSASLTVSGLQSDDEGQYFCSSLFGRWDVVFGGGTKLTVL 0.651

Record request: IC50 (neutralization) value, item PGT-123 (antibody, V domains shown) VH: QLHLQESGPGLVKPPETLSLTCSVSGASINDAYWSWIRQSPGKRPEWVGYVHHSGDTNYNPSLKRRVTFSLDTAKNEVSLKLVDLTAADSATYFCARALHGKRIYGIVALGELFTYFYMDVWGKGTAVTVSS VL: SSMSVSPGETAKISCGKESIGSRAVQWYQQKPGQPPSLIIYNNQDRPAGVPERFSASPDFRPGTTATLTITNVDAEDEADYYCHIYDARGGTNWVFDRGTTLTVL 3.74

Record request: IC50 (neutralization) value, item PGT-131 (antibody, V domains shown) VH: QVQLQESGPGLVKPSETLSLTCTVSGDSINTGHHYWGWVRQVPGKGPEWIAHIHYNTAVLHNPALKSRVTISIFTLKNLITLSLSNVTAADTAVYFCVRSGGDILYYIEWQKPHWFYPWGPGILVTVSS VL: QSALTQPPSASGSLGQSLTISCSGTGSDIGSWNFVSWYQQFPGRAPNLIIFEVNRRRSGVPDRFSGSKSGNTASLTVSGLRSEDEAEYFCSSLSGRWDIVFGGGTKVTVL 19.6
